- TEST SYSTEM: SpLsb1
- ASSAY REMARKS: SPOT peptide array binding signal intensity (averaged, normalized) (arbitrary units (background-subtracted, floor 0; scale differs between SH3 domains)); higher = stronger binding of the SH3 domain to the peptide
OBSERVABLE: SPOT peptide array binding signal intensity
Answer with a bare number; do not write a unit.

Ask: Output SPOT peptide array binding signal intensity of FYHRPAPKPPVTKKV
Reply: 8

Ask: Give a short answer stating reported SPOT peptide array binding signal intensity for RKRAPTPPAPSRSEK .
Reply: 39.2

Ask: Give reported SPOT peptide array binding signal intensity value for SKIRPTPRKPSRMAT
Reply: 5

Reference source for all entries: the supplement of paper PMC4466140
